biological target: Peptide 1: Biotin-…-[Tyr(PC)]-acid; test: scFv ELISA
Sequence (peptide, as listed by the source): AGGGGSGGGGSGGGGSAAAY
This listing pairs binders with measured OD450.
measured property: OD450 (OD450)

binder="PcOxP_DB01_F11 (scFv, V domains shown, scFv in periplasmic extract) VH: EVQLLESGGGLVQPGGSLRLSCAASGFTFSSYYMEWVRQAPGKGLEWVAASRNKANDYTTEYADSVKGRFTISRDNSKNTLYLQMNSLRAEDTAVYYCARDYYGSSYWYYDVWGQGTLVTVSS VL: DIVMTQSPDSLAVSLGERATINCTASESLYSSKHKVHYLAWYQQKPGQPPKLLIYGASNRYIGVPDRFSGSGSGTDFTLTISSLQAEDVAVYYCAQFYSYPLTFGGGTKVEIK" measured_property=OD450 numeric_readout=1.55
binder="PcOxP_DB03_B07 (scFv, V domains shown, scFv in periplasmic extract) VH: EVQLLESGGGLVQPGGSLRLSCAASGFGFSDFYMEWVRQAPGKGLEWVAASRNKANDYTTEYADSVKGRFTISRDNSKNTLYLQMNSLRAEDTAVYYCARDYYSSSYWYFDVWGQGTLVTVSS VL: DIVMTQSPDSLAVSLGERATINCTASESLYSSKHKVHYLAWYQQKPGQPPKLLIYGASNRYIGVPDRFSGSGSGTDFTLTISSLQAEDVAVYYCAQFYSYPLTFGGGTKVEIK" measured_property=OD450 numeric_readout=0.66
